Values from paper PMC4266796

Tested on: L. sigmodontis
Assay: In vivo L. sigmodontis screening assay, worm length
Parameters: species or system Litomosoides sigmodontis in BALB/c mice
Conditions: standard doses tested
observable: Effect on worm length (in words)

C[C@@H]1CN(c2c(F)c(N)c3c(=O)c(C(=O)O)cn(C4CC4)c3c2F)C[C@H](C)N1 [Sparfloxacin]; significantly reduced
CO[C@H]1/C=C/O[C@@]2(C)Oc3c(C)c(O)c4c(O)c(c(/C=N/N5CCN(C6CCCC6)CC5)c(O)c4c3C2=O)NC(=O)/C(C)=C\C=C\[C@H](C)[C@H](O)[C@@H](C)[C@@H](O)[C@@H](C)[C@H](OC(C)=O)[C@@H]1C [Rifapentine]; significantly reduced
CN(C)c1ccc(O)c2c1C[C@H]1C[C@H]3[C@H](N(C)C)C(O)=C(C(N)=O)C(=O)[C@@]3(O)C(O)=C1C2=O [Minocycline]; significantly reduced

---

Test: in vitro
Conditions: Aedes albopictus
Counter-ions that a name gives are not always drawn.
Measured cytotoxicity at 10 µM values are reported for all entries that follow.
Answer with a number only, understood to be in %.

Would you please look over these solved cases?
COc1ccc2c(c1)c(CC(=O)O)c(C)n2C(=O)c1ccc(Cl)cc1 [Indomethacin]; 0
CC(=O)Oc1cccc2c1C(=O)c1c(OC(C)=O)cc(C(=O)O)cc1C2=O [Diacerein]; 0
CC1(C)NC(=O)N(c2ccc([N+](=O)[O-])c(C(F)(F)F)c2)C1=O [Nilutamide]; 0.01
CN(C)c1ccc(O)c2c1C[C@H]1C[C@H]3[C@H](N(C)C)C(O)=C(C(N)=O)C(=O)[C@@]3(O)C(O)=C1C2=O [Minocycline]; 0
CCOc1ccc2nc(S(N)(=O)=O)sc2c1 [Ethoxzolamide]; 19

Which measured cytotoxicity at 10 µM value corresponds to O=C(O)c1cn(C2CC2)c2cc(N3CCNCC3)c(F)cc2c1=O [Ciprofloxacin hydrochloride] ?
0

I am curious: what cytotoxicity at 10 µM value has been reported for NNC(=O)c1ccncc1 [Isoniazid] ?
0.3

What does the data say about its cytotoxicity at 10 µM? Entry: CO[C@H]1/C=C/O[C@@]2(C)Oc3c(C)c(O)c4c(O)c(c(/C=N/N5CCN(C6CCCC6)CC5)c(O)c4c3C2=O)NC(=O)/C(C)=C\C=C\[C@H](C)[C@H](O)[C@@H](C)[C@@H](O)[C@@H](C)[C@H](OC(C)=O)[C@@H]1C [Rifapentine]
20

---

Assay: in vitro
Details: Aedes albopictus
Where a name gives a salt, the structure may show the parent alone.
observable: cytotoxicity at 10 µM (%)
Unit % implied. Number only.

Some solved cases for reference:
Nc1nc(NC2CC2)c2ncn([C@H]3C=C[C@@H](CO)C3)c2n1 [Abacavir Sulfate]; 0
NC[C@@H]1O[C@H](O[C@H]2[C@@H](O)[C@H](O[C@@H]3[C@@H](O)[C@H](N)C[C@H](N)[C@H]3O[C@H]3O[C@H](CO)[C@@H](O)[C@H](O)[C@H]3N)O[C@@H]2CO)[C@H](N)[C@@H](O)[C@@H]1O [Paromomycin sulfate]; 0
CCOC(=O)N1CCC(=C2c3ccc(Cl)cc3CCc3cccnc32)CC1; 20.7

Reported cytotoxicity at 10 µM for `C[C@@H]1CN(c2c(F)c(N)c3c(=O)c(C(=O)O)cn(C4CC4)c3c2F)C[C@H](C)N1` : what is it?
0

GET /values?readout=cytotoxicity at 10 µM&item= `COc1cc(/C=C/C(=O)CC(=O)/C=C/c2ccc(O)c(OC)c2)ccc1O`
0

Quick one: cytotoxicity at 10 µM of C=C1c2cccc(O)c2C(=O)C2=C(O)[C@]3(O)C(=O)C(C(N)=O)=C(O)[C@@H](N(C)C)[C@@H]3[C@@H](O)[C@H]12 [Methacycline hydrochloride] ?
0
